- STUDY CONDITIONS: 313.15 K; 101 kPa; Liquid; Concentric cylinders viscometry
REPORTED ENDPOINT: viscosity (mPa·s)

CN(CCO)CCO [N-methyldiethanolamine] :: 37.68

I = CCCCn1cc[n+](C)c1.F[B-](F)(F)F [1-butyl-3-methylimidazolium tetrafluoroborate]
II = CCCCn1cc[n+](C)c1.N#CN=C=[N-] [1-butyl-3-methylimidazolium dicyanamide]
III = CCn1cc[n+](C)c1.O=S(=O)([O-])C(F)(F)F [1-ethyl-3-methylimidazolium trifluoromethanesulfonate]
Prompt: Arrange these compounds by their viscosity, starting with the largest number. Present the labels in the sequence the task asks for.
Completion: I, III, II
(I: 46.96 mPa·s, III: 26.65 mPa·s, II: 17.12 mPa·s)

----------
- STUDY CONDITIONS: 303.15 K; 101 kPa; Liquid; Concentric cylinders viscometry
REPORTED ENDPOINT: viscosity (mPa·s)

Below, 2 compounds whose answers are already recorded.
CCn1cc[n+](C)c1.O=S(=O)([O-])C(F)(F)F [1-ethyl-3-methylimidazolium trifluoromethanesulfonate] :: 36.14
CN(CCO)CCO :: 58.62

A = CCCCn1cc[n+](C)c1.F[B-](F)(F)F [1-butyl-3-methylimidazolium tetrafluoroborate]
B = CCCCn1cc[n+](C)c1.N#CN=C=[N-] [1-butyl-3-methylimidazolium dicyanamide]
Prompt: Returns: the label, A or B , whose recorded viscosity is the lower number. Answer by stating the label of the chosen item.
Completion: B
(B: 23.92 mPa·s, A: 71.63 mPa·s)

----------
- STUDY CONDITIONS: 353.15 K; 101 kPa; Liquid; Vibrating tube method
REPORTED ENDPOINT: mass density (kg/m3)

CCn1cc[n+](C)c1.O=S(=O)([O-])C(F)(F)F [1-ethyl-3-methylimidazolium trifluoromethanesulfonate] :: 1338.7
CN(CCO)CCO :: 996.3
CCCCn1cc[n+](C)c1.N#CN=C=[N-] [1-butyl-3-methylimidazolium dicyanamide] :: 1024.2
CCCCn1cc[n+](C)c1.F[B-](F)(F)F [1-butyl-3-methylimidazolium tetrafluoroborate] :: 1154.9

----------
- STUDY CONDITIONS: 353.15 K; 101 kPa; Liquid; Concentric cylinders viscometry
REPORTED ENDPOINT: viscosity (mPa·s)

Below, 2 compounds whose answers are already recorded.
CCn1cc[n+](C)c1.O=S(=O)([O-])C(F)(F)F [1-ethyl-3-methylimidazolium trifluoromethanesulfonate] :: 12.17
CN(CCO)CCO :: 6.756

a = CCCCn1cc[n+](C)c1.N#CN=C=[N-] [1-butyl-3-methylimidazolium dicyanamide]
b = CCCCn1cc[n+](C)c1.F[B-](F)(F)F [1-butyl-3-methylimidazolium tetrafluoroborate]
Prompt: Two entries are listed, a and b . Which one carries the higher viscosity? Answer by stating the label of the chosen item.
Completion: b

----------
- STUDY CONDITIONS: 333.15 K; 101 kPa; Liquid; Concentric cylinders viscometry
REPORTED ENDPOINT: viscosity (mPa·s)

Below, 2 compounds whose answers are already recorded.
CCCCn1cc[n+](C)c1.F[B-](F)(F)F [1-butyl-3-methylimidazolium tetrafluoroborate] :: 23.8
CN(CCO)CCO :: 15.26

A = CCCCn1cc[n+](C)c1.N#CN=C=[N-] [1-butyl-3-methylimidazolium dicyanamide]
B = CCn1cc[n+](C)c1.O=S(=O)([O-])C(F)(F)F [1-ethyl-3-methylimidazolium trifluoromethanesulfonate]
Prompt: Returns: the label, A or B , whose recorded viscosity is the lower number. Answer by stating the label of the chosen item.
Completion: A
(A: 10.49 mPa·s, B: 16.45 mPa·s)

----------
- STUDY CONDITIONS: 363.15 K; 101 kPa; Liquid; Concentric cylinders viscometry
REPORTED ENDPOINT: viscosity (mPa·s)

CCCCn1cc[n+](C)c1.F[B-](F)(F)F [1-butyl-3-methylimidazolium tetrafluoroborate] :: 11.32
CN(CCO)CCO :: 4.539

1 = CCn1cc[n+](C)c1.O=S(=O)([O-])C(F)(F)F [1-ethyl-3-methylimidazolium trifluoromethanesulfonate]
2 = CCCCn1cc[n+](C)c1.N#CN=C=[N-] [1-butyl-3-methylimidazolium dicyanamide]
Prompt: Two entries are listed, 1 and 2 . Which one carries the higher viscosity? Answer by stating the label of the chosen item.
Completion: 1

----------
- STUDY CONDITIONS: 333.15 K; 101 kPa; Liquid; Vibrating tube method
REPORTED ENDPOINT: mass density (kg/m3)

CN(CCO)CCO :: 1013
CCn1cc[n+](C)c1.O=S(=O)([O-])C(F)(F)F [1-ethyl-3-methylimidazolium trifluoromethanesulfonate] :: 1350.9
CCCCn1cc[n+](C)c1.F[B-](F)(F)F [1-butyl-3-methylimidazolium tetrafluoroborate] :: 1166.7
CCCCn1cc[n+](C)c1.N#CN=C=[N-] [1-butyl-3-methylimidazolium dicyanamide] :: 1037.1

----------
- STUDY CONDITIONS: 313.15 K; 101 kPa; Liquid; Vibrating tube method
REPORTED ENDPOINT: mass density (kg/m3)

CN(CCO)CCO :: 1027.1
CCCCn1cc[n+](C)c1.F[B-](F)(F)F [1-butyl-3-methylimidazolium tetrafluoroborate] :: 1182.3
CCCCn1cc[n+](C)c1.N#CN=C=[N-] [1-butyl-3-methylimidazolium dicyanamide] :: 1049.3
CCn1cc[n+](C)c1.O=S(=O)([O-])C(F)(F)F [1-ethyl-3-methylimidazolium trifluoromethanesulfonate] :: 1371.7

----------
- STUDY CONDITIONS: 303.15 K; 101 kPa; Liquid; Vibrating tube method
REPORTED ENDPOINT: mass density (kg/m3)

CCCCn1cc[n+](C)c1.N#CN=C=[N-] [1-butyl-3-methylimidazolium dicyanamide] :: 1055.1
CCn1cc[n+](C)c1.O=S(=O)([O-])C(F)(F)F [1-ethyl-3-methylimidazolium trifluoromethanesulfonate] :: 1381.8
CN(CCO)CCO :: 1034.7
CCCCn1cc[n+](C)c1.F[B-](F)(F)F [1-butyl-3-methylimidazolium tetrafluoroborate] :: 1191.3

----------
- STUDY CONDITIONS: 363.15 K; 101 kPa; Liquid; Vibrating tube method
REPORTED ENDPOINT: mass density (kg/m3)

CCCCn1cc[n+](C)c1.F[B-](F)(F)F [1-butyl-3-methylimidazolium tetrafluoroborate] :: 1139.4
CN(CCO)CCO :: 993.9
CCCCn1cc[n+](C)c1.N#CN=C=[N-] [1-butyl-3-methylimidazolium dicyanamide] :: 1019.3
CCn1cc[n+](C)c1.O=S(=O)([O-])C(F)(F)F [1-ethyl-3-methylimidazolium trifluoromethanesulfonate] :: 1326
